# EXPERIMENTAL_SYSTEM: Tyrosine-protein kinase BTK (Homo sapiens)
# Sequence (Q06187 whole entry): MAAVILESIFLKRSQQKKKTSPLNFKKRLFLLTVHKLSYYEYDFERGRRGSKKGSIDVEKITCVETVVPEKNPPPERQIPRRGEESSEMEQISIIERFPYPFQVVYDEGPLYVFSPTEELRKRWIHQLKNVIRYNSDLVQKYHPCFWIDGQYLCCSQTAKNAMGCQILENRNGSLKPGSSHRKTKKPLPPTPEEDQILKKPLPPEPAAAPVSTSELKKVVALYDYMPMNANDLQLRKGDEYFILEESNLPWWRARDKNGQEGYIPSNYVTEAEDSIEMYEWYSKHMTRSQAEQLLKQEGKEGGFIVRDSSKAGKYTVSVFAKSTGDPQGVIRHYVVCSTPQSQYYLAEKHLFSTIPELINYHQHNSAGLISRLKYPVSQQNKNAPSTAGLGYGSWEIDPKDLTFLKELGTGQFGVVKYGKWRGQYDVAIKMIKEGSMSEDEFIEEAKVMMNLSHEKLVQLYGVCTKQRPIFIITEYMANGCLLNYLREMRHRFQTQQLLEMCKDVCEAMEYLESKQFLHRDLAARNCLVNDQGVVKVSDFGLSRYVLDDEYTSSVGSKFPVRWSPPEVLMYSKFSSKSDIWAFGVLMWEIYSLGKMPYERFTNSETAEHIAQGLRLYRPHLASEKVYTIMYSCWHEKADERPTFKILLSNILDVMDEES
# PROCEDURE_DETAILS: Inhibition of (S)-3-(3-(5-acrylamido-6-(3-(5-(2-methyl-5-(3-(trifluoromethyl)benzamido)benzamido)pyrimidin-2-ylamino)phenylamino)-6-oxohexylamino)-3-oxopropyl)-5,5-difluoro-7,9-dimethyl-5H-dipyrrolo[1,2-c:1',2'-f][1,3,2]diazaborinin-4-ium-5-uide binding to BTK in human NAMALVA cells preincubated for 1 hr followed by compound washout for three times and treated with probe for 1 hr by competitive labeling assay
# Format: cell-based
ENDPOINT_NAME: IC50 (µM)
Quick reminder: number only, in µM, skip the unit.

Which IC50 value belongs to `C=CC(=O)Nc1cccc(Nc2ncc(NC(=O)c3cc(NC(=O)c4ccc5cnccc5c4)ccc3C)cn2)c1` ?
0.11
